test system: Rattus norvegicus; experiment: Diuretic activity after peroral administration of 100 mg/Kg in rats; type: functional, Urine
Kind request: treat 200% as inclusive, so Relative activity at 200% or higher is Satisfied, anything lower is Not satisfied.

Some entries whose results are on file:
INPUT: Item O=C(O)C1Cc2c(c(Cl)c(Cl)c3nc(-c4ccccc4)oc23)O1 (stereo not drawn) with Relative activity of 200% or above?
OUTPUT: Satisfied

INPUT: Item O=C(O)C1Oc2c(Cl)cc3c(-c4ccccc4)noc3c2O1 (stereo not drawn) with Relative activity of 200% or above?
OUTPUT: Not satisfied

INPUT: Item O=C(O)COc1ccc2c(-c3ccccc3F)noc2c1Cl with Relative activity of 200% or above?
OUTPUT: Satisfied

INPUT: Item O=C(O)COc1ccc(C(=O)c2cccs2)c(Cl)c1Cl [TICRYNAFEN] with Relative activity of 200% or above?
OUTPUT: Not satisfied

INPUT: Item O=C(O)C1Cc2c(c(Cl)cc3c(=O)c4ccccc4oc23)O1 (stereo not drawn) with Relative activity of 200% or above?
OUTPUT: Satisfied

More entries:
INPUT: Item O=C(O)C1Cc2cc(-c3noc4ccccc34)c(Cl)c(Cl)c2O1 (stereo not drawn) with Relative activity of 200% or above?
OUTPUT: Satisfied

INPUT: Item O=C(O)C1Cc2cc3c(-c4ccccc4)noc3c(Cl)c2O1 (stereo not drawn) with Relative activity of 200% or above?
OUTPUT: Satisfied

INPUT: Item O=C(O)C1Cc2c(c(Cl)cc3c(-c4ccccc4)noc23)O1 (stereo not drawn) with Relative activity of 200% or above?
OUTPUT: Not satisfied
